- System: RAW-Dual (murine macrophage reporter line)
- experiment: NF-kB reporter (SEAP) activity fold change vs agonist alone; higher = enhanced NF-kB activity
- assay.conditions: modulator concentration 10 µM; agonist: LPS 0.1 ug/mL
Answer each item with its documented NF-kB reporter.
# respond with the number and nothing more

**Query** Which measured NF-kB reporter value corresponds to O=C(C=Cc1ccccc1)NC(NC(=S)Nc1cccc2cccnc12)C(Cl)(Cl)Cl (stereo not given) ?
**Result** 0.575

**Query** Which measured NF-kB reporter value corresponds to `COc1ccc(N2CCN(C(=O)Cc3csc(NC(=O)Nc4ccccc4OC)n3)CC2)cc1` ?
**Result** 1.03

**Query** Which measured NF-kB reporter value corresponds to `COC(=O)c1cc(Br)ccc1NC(=O)c1ccccc1` ?
**Result** 1.02

**Query** Which measured NF-kB reporter value corresponds to `COc1cccc2cc(C(=O)NCc3nn(C4CCCC4)c(=O)c4ccccc34)oc12` ?
**Result** 1.1

**Query** Which measured NF-kB reporter value corresponds to `O=C(NN=Cc1c(O)ccc2ccccc12)c1[nH]ncc1I` ?
**Result** 1.24

----------
- Test system: RAW-Dual (murine macrophage reporter line)
- experiment: viability score (confluency relative to resting cells, overnight) (fraction); higher = more viable, active = viable (0.7 or more)
- assay.conditions: modulator concentration 10 µM
Answer each item with its documented viability score.
# respond with the number and nothing more

**Query** Which measured viability score value corresponds to `CN(C)C=C1C(=O)N(c2nc3ccccc3s2)N=C1CSc1ccc(Cl)cc1` ?
**Result** 1.01

**Query** Which measured viability score value corresponds to CC1(C)CCC2(C(=O)O)CCC3(C)C(=CCC4C5(C)CCC(O)C(C)(C)C5CCC43C)C2C1 (configuration not stated) ?
**Result** 0.999

**Query** Which measured viability score value corresponds to `Brc1ccc(Cn2c(CN3CCCC3)nc3ccccc32)cc1` ?
**Result** 0.957

**Query** Which measured viability score value corresponds to `Cc1cc(-c2ccc(N=Cc3ccc(Cl)c([N+](=O)[O-])c3)c(C)c2)ccc1N=Cc1ccc(Cl)c([N+](=O)[O-])c1` ?
**Result** 1

**Query** Which measured viability score value corresponds to `O=C(Nc1ncc(S(=O)(=O)c2ccc([N+](=O)[O-])cc2)s1)c1cccs1` ?
**Result** 1.01

**Query** Which measured viability score value corresponds to `O=C(C=Cc1ccc(Br)cc1)c1c(-c2ccccc2)c2cc(Cl)ccc2[nH]c1=O` ?
**Result** 0.997

**Query** Which measured viability score value corresponds to `Cl.N=C1CCCN1Cc1[nH]c(=O)[nH]c(=O)c1Cl` ?
**Result** 0.961

**Query** Which measured viability score value corresponds to CN1CCN(CCCN2c3ccccc3Sc3ccc(Cl)cc32)CC1 [Prestw-399] ?
**Result** 0.114

**Query** Which measured viability score value corresponds to `CCN(CC)Cc1cc(Nc2ccnc3cc(Cl)ccc23)ccc1O.Cl.Cl` ?
**Result** 0.873

**Query** Which measured viability score value corresponds to `Cl.O=C1c2cccc3c2[C@H](CCC3)CN1[C@@H]1CN2CCC1CC2` ?
**Result** 0.974

**Query** Which measured viability score value corresponds to `COC(=O)c1c(NC(=O)C2CCCCC2)sc2c1CC(C)(C)NC2(C)C` ?
**Result** 0.419

**Query** Which measured viability score value corresponds to CC(CS)C(=O)N1CCCC1C(=O)O (configuration not stated) ?
**Result** 1.02

**Query** Which measured viability score value corresponds to `Nc1ncn([C@H]2C[C@H](O)[C@@H](CO)O2)c(=O)n1` ?
**Result** 0.963

**Query** Which measured viability score value corresponds to CC1=C(C(=O)OCCN(Cc2ccccc2)c2ccccc2)C(c2cccc([N+](=O)[O-])c2)C(P2(=O)OCC(C)(C)CO2)=C(C)N1 (configuration not stated) ?
**Result** 1

**Query** Which measured viability score value corresponds to `CC(=O)c1ccc(NC(=O)c2ccccc2C(=O)O)cc1` ?
**Result** 1

**Query** Which measured viability score value corresponds to Nc1ncnc2c1ncn2C1CC(O)C(CO)O1 (configuration not stated) ?
**Result** 1.05

**Query** Which measured viability score value corresponds to `CC(C)Oc1ccc(C(=O)NC2CCN(c3ncnc4c3CCCC4)CC2)cn1` ?
**Result** 0.997

**Query** Which measured viability score value corresponds to `CC(C)C(=O)N1CCCc2ccc(NC(=O)COc3ccc4ccccc4c3)cc21` ?
**Result** 0.995

**Query** Which measured viability score value corresponds to `O=S1(=O)N=C(Oc2ccc3ccccc3c2)c2ccccc21` ?
**Result** 0.992

**Query** Which measured viability score value corresponds to CC(=O)N1CCC(C(=O)N2CCOCC2CN(C)C)CC1.O=CO (configuration not stated) ?
**Result** 0.992

**Query** Which measured viability score value corresponds to CCC(c1ccc(O)cc1)C(CC)c1ccc(O)cc1 (configuration not stated) [Prestw-699] ?
**Result** 0.181

**Query** Which measured viability score value corresponds to `O=C(O)c1ccccc1O` ?
**Result** 0.995

----------
- System: RAW-Dual (murine macrophage reporter line)
- experiment: viability score (confluency relative to resting cells, overnight) (fraction); higher = more viable, active = viable (0.7 or more)
- assay.conditions: modulator concentration 10 µM
parameter: viability score
# respond with the number and nothing more

**Query** Form entry - test system: RAW-Dual (murine macrophage reporter line); read-out: viability score; compound: CCOc1ccc(S(=O)(=O)N2C3CCC2CC(S(=O)(=O)c2ccccc2)C3)cc1 (stereo not given)
**Result** 0.978

**Query** Form entry - test system: RAW-Dual (murine macrophage reporter line); read-out: viability score; compound: `Nc1ccn([C@@H]2O[C@H](CO)[C@@H](O)C2(F)F)c(=O)n1`
**Result** 0.241

**Query** Form entry - test system: RAW-Dual (murine macrophage reporter line); read-out: viability score; compound: `Cc1cccc(Nc2ccccc2C(=O)O)c1C`
**Result** 0.999

**Query** Form entry - test system: RAW-Dual (murine macrophage reporter line); read-out: viability score; compound: `c1ccc(CCn2c3ccccc3c3nnc(SCCN4CCOCC4)nc32)cc1`
**Result** 1.01

**Query** Form entry - test system: RAW-Dual (murine macrophage reporter line); read-out: viability score; compound: `O=C(CSc1ncnc2c(-c3ccccc3)c[nH]c12)NCc1ccc(Cl)cc1`
**Result** 0.99

**Query** Form entry - test system: RAW-Dual (murine macrophage reporter line); read-out: viability score; compound: `CC(C)CN(C[C@@H](O)[C@H](Cc1ccccc1)NC(=O)O[C@H]1CO[C@H]2OCC[C@H]21)S(=O)(=O)c1ccc(N)cc1.CCO`
**Result** 0.996

**Query** Form entry - test system: RAW-Dual (murine macrophage reporter line); read-out: viability score; compound: `Cc1ncsc1C(=O)N1CC(OCC(F)(F)F)C1`
**Result** 1

**Query** Form entry - test system: RAW-Dual (murine macrophage reporter line); read-out: viability score; compound: COC(=O)C1=CN(CC2CCCO2)C=C(C(=O)OC)C1c1ccccc1OC (stereo not given)
**Result** 1.02

**Query** Form entry - test system: RAW-Dual (murine macrophage reporter line); read-out: viability score; compound: `Cc1ccc2sc(NC(=O)c3cccc(N4C(=O)CCC4=O)c3)nc2c1C`
**Result** 1.02

**Query** Form entry - test system: RAW-Dual (murine macrophage reporter line); read-out: viability score; compound: `Cn1ncc(Cl)c1-c1cc(C(=O)N[C@H](CN)Cc2cccc(F)c2)sc1Cl`
**Result** 0.647

----------
- Tested on: RAW-Dual (murine macrophage reporter line)
- experiment: NF-kB reporter (SEAP) activity fold change vs agonist alone; higher = enhanced NF-kB activity
- assay.conditions: modulator concentration 10 µM; agonist: CpG ODN 1826 0.5 ug/mL
Answer each item with its documented NF-kB reporter.
# respond with the number and nothing more

**Query** Which measured NF-kB reporter value corresponds to `N=C1NC(=O)C(=Cc2ccc(-c3ccc(F)cc3)o2)S1` ?
**Result** 0.507

**Query** Which measured NF-kB reporter value corresponds to CC(O)(CNC(=O)NCc1ccc(F)cc1)c1ccc(-c2ccccc2)cc1 (configuration not stated) ?
**Result** 0.998

**Query** Which measured NF-kB reporter value corresponds to `CCOC(=O)c1ccccc1NC(=O)CN(c1cc(C)ccc1OC)S(C)(=O)=O` ?
**Result** 1.05

**Query** Which measured NF-kB reporter value corresponds to `O=C(O)c1cc(NC(=O)c2ccc(Cl)c([N+](=O)[O-])c2)cc(C(=O)O)c1` ?
**Result** 1.08

**Query** Which measured NF-kB reporter value corresponds to `NC[C@H]1CC[C@H](C(=O)O)CC1` ?
**Result** 0.939

**Query** Which measured NF-kB reporter value corresponds to Cc1ccc(C(CNC(=O)NC2CCCC2)OCCO)cc1 (configuration not stated) ?
**Result** 0.622

**Query** Which measured NF-kB reporter value corresponds to `CC(=O)NC(NC(C)=O)c1cccc([N+](=O)[O-])c1` ?
**Result** 1.15

**Query** Which measured NF-kB reporter value corresponds to `Cc1c(C(=O)OC(C)C)sc(NC(=O)C(F)(F)F)c1C(=O)OC(C)C` ?
**Result** 1.4

**Query** Which measured NF-kB reporter value corresponds to `O=C(CCCN1CCC(O)(c2ccc(Cl)cc2)CC1)c1ccc(F)cc1` ?
**Result** 0.827

**Query** Which measured NF-kB reporter value corresponds to CC(Oc1ccccc1)C(=O)NC1CC(C)(C)NC(C)(C)C1 (configuration not stated) ?
**Result** 0.76

**Query** Which measured NF-kB reporter value corresponds to `Cc1cncc(CN2CCC(=C3c4ccc(Cl)cc4CCc4cccnc43)CC2)c1.O=C(O)/C=C/C(=O)O` ?
**Result** 1.46

**Query** Which measured NF-kB reporter value corresponds to CC(C)NCC(O)COc1ccccc1C(C)(C)C.Cl (configuration not stated) ?
**Result** 0.857

**Query** Which measured NF-kB reporter value corresponds to `O=C(NCCCOc1cccc2cccnc12)c1cccnc1` ?
**Result** 0.892

**Query** Which measured NF-kB reporter value corresponds to `CS(=O)(=O)O.Cc1ccc(NC(=O)c2ccc(CN3CCN(C)CC3)cc2)cc1Nc1nccc(-c2cccnc2)n1` ?
**Result** 0.119

**Query** Which measured NF-kB reporter value corresponds to `N#Cc1nc(-c2ccc(COc3ccccc3)o2)oc1N1CCCCC1` ?
**Result** 1.07

**Query** Which measured NF-kB reporter value corresponds to Cc1ccc(OCC(O)CN2CCCCC2)c(C)c1.Cl (configuration not stated) ?
**Result** 0.868

**Query** Which measured NF-kB reporter value corresponds to CCC(C(=O)N1CC(Nc2cnccn2)C1)c1ccccc1 (configuration not stated) ?
**Result** 0.995

**Query** Which measured NF-kB reporter value corresponds to CSc1ccc(C2Nc3ccccc3-c3nnc(SCc4ccc(C)cc4)nc3O2)cc1 (configuration not stated) ?
**Result** 0.817

**Query** Which measured NF-kB reporter value corresponds to `Cl.Cl.OCCN1CCN(CCCN2c3ccccc3Sc3ccc(C(F)(F)F)cc32)CC1` ?
**Result** 0.972

**Query** Which measured NF-kB reporter value corresponds to `CCCCc1oc2ccccc2c1C(=O)c1cc(I)c(OCCN(CC)CC)c(I)c1` ?
**Result** 0.41

**Query** Which measured NF-kB reporter value corresponds to `C#CCN[C@@H]1CCc2ccccc21.CS(=O)(=O)O` ?
**Result** 0.992

**Query** Which measured NF-kB reporter value corresponds to CC(=O)C(C(=O)Nc1ccc(F)cc1)C(c1ccc(Cl)cc1Cl)C(C#N)C#N (configuration not stated) ?
**Result** 0.894
